Taken from patent US20250109140A1.

system: SMN2 mRNA; experiment: Splicing RT-qPCR gene panel, SMN2 canonical junction (CJ) mRNA; format: cell-based; conditions: Homo sapiens; Table 8; larger gene panel, decrease in CJ mRNA levels
Consider the following compounds; for each one, report its IC50.

// query Which measured IC50 value corresponds to Cn1cc2cc(-c3nc4sc(N5CCN6CCCC6C5)cc4s3)cc(F)c2n1 (stereo not shown) ?
// result < 0.1 µM

// query Which measured IC50 value corresponds to Cn1cc2cc(-c3nc4sc(N5CCC(NC(C)(C)C)C5)cc4s3)cc(F)c2n1 (stereo not shown) ?
// result 0.1 to 1 µM

// query Which measured IC50 value corresponds to Cc1cn2cc(-n3cc4sc(C5CCNCC5)cc4n3)nc2c(C)n1 ?
// result 1 to 10 µM

// query Which measured IC50 value corresponds to Cc1cn2nc(-c3cc4sc(C5CCNCC5)nc4s3)cc(C)c2n1 ?
// result 0.1 to 1 µM

// query Which measured IC50 value corresponds to Cn1cc2cc(-n3cc4cc(C5CCNCC5)sc4n3)c(O)cc2n1 ?
// result 1 to 10 µM

// query Which measured IC50 value corresponds to Cn1cc2cc(-c3cn4nc(C5CCNCC5)nc4s3)cc(F)c2n1 ?
// result < 0.1 µM

// query Which measured IC50 value corresponds to Cn1cc2cc(-c3nc4sc(N5CCC56CCNCC6)cc4s3)cc(F)c2n1 ?
// result > 10 µM

// query Which measured IC50 value corresponds to COc1c(-c2nc3sc(C4CCNCC4)cc3s2)cc2cn(C)nc2c1F ?
// result < 0.1 µM

// query Which measured IC50 value corresponds to CN1CCN(c2cc3sc(-c4cc(F)c5nn(C)cc5c4)nc3s2)CC1 ?
// result < 0.1 µM

// query Which measured IC50 value corresponds to Cc1cn2nc(-c3nc4sc(C5=CCNCC5)cc4s3)cc(C)c2n1 ?
// result < 0.1 µM

// query Which measured IC50 value corresponds to Cc1nc2c(F)cc(-c3nc4sc(C5CCNCC5)cc4s3)cc2s1 ?
// result 0.1 to 1 µM

// query Which measured IC50 value corresponds to Cc1cn2cc(-c3cc4cn(C5CCNCC5)nc4s3)ncc2n1 ?
// result 0.1 to 1 µM

// query Which measured IC50 value corresponds to Cn1cc2cc(-c3nc4sc([C@H]5CCNC[C@H]5F)cc4s3)cc(F)c2n1 ?
// result 0.1 to 1 µM

====

Consider the following molecules; for each one, report its pIC50.
system: Target C mRNA; experiment: Splicing RT-qPCR gene panel, Target C canonical junction (CJ) mRNA; assay type: cell-based; details: Homo sapiens; Table 8; larger gene panel, decrease in CJ mRNA levels
pIC50: −log10 of the molar value. Structures can show the parent of a compound that is named as a salt.

// query Which measured pIC50 value corresponds to Cc1cn2nc(-c3cc4cn(C5CCNCC5)nc4s3)cc(C)c2n1 [Compound 162] ?
// result 6.00 to 7.00

// query Which measured pIC50 value corresponds to Cn1cc2cc(-n3cc4sc(C5CCNCC5)cc4n3)c(O)cc2n1 [Compound 178] ?
// result 5.00 to 6.00

// query Which measured pIC50 value corresponds to Cn1cc2c(O)c(-c3nc4sc(C5CCNCC5)cc4s3)ccc2n1 [Compound 231] ?
// result < 5.00

// query Which measured pIC50 value corresponds to COc1c(-c2nc3sc(C4CCNCC4)cc3s2)cc2cn(C)nc2c1F [Compound 242] ?
// result > 7.00

// query Which measured pIC50 value corresponds to Cc1cn2nc(-n3cc4sc(N5CC6(CN(C)C6)C5)cc4n3)cc(C)c2n1 [Compound 188] ?
// result 5.00 to 6.00

// query Which measured pIC50 value corresponds to Cn1cc2cc(-n3cc4sc(C5CCNCC5)cc4n3)ccc2n1 [Compound 100] ?
// result < 5.00

// query Which measured pIC50 value corresponds to Cn1cc2ccc(-c3nc4sc(C5CCNCC5)cc4s3)cc2n1 [Compound 127, hydrochloride] ?
// result 5.00 to 6.00

// query Which measured pIC50 value corresponds to Cn1cc2cc(-c3cc4cn([C@@H]5CCNC[C@@H]5F)nc4s3)cc(F)c2n1 [Compound 183] ?
// result 5.00 to 6.00

// query Which measured pIC50 value corresponds to Cc1cn2cc(-n3cc4cc(C5CCNCC5)sc4n3)nc2c(C)n1 [Compound 227] ?
// result 5.00 to 6.00

// query Which measured pIC50 value corresponds to Cn1cc2cc(-c3nc4cn(C5CCNCC5)nc4s3)cc(F)c2n1 [Compound 1100] ?
// result 6.00 to 7.00

// query Which measured pIC50 value corresponds to Cc1nc2cc(O)c(-c3nc4cn(C5CCNCC5)nc4s3)cc2o1 [Compound 1104] ?
// result 5.00 to 6.00

// query Which measured pIC50 value corresponds to Cc1cn2cc(-c3cc4cn(C5CCNCC5)nc4s3)cc(F)c2n1 [Compound 229] ?
// result 6.00 to 7.00

// query Which measured pIC50 value corresponds to Cc1cn2nc(-c3nc4sc(C5CCNC5)cc4s3)cc(C)c2n1 (centres unmarked) [Compound 197] ?
// result 5.00 to 6.00

// query Which measured pIC50 value corresponds to Cn1cc2cc(-c3cc4nn(C5CCNCC5)cc4s3)cc(F)c2n1 [Compound 121] ?
// result > 7.00

// query Which measured pIC50 value corresponds to Cn1cc2cc(-c3cc4cn([C@H]5CCNC[C@H]5F)nc4s3)cc(F)c2n1 [Compound 182] ?
// result 6.00 to 7.00

// query Which measured pIC50 value corresponds to Cn1cc2cc(-c3cc4cn([C@@H]5CCNC[C@H]5O)nc4s3)cc(F)c2n1 [Compound 273] ?
// result < 5.00

// query Which measured pIC50 value corresponds to Cn1cc2cc(-c3cc4cn(C5CCNCC5)nc4s3)cc(F)c2n1 [Compound 122] ?
// result > 7.00

====

system: Target C mRNA; assay: Splicing RT-qPCR gene panel, Target C canonical junction (CJ) mRNA; assay type: cell-based; settings: Homo sapiens; Table 8; larger gene panel, decrease in CJ mRNA levels
Where a name gives a salt, the structure may show the parent alone.
Endpoint: IC50

// query Which measured IC50 value corresponds to Cn1cc2cc(-n3cc4cc(C5CCNCC5)sc4n3)cc(F)c2n1 [Compound 104] ?
// result 100 to 1000 nM

// query Which measured IC50 value corresponds to Cn1cc2cc(-c3nc4sc(N5CCC56CCNC6)cc4s3)cc(F)c2n1 (stereo not drawn) [Compound 200] ?
// result > 10000 nM

// query Which measured IC50 value corresponds to Cc1cn2cc(-c3nc4sc(C5CCNCC5)cc4s3)nc2c(C)n1 [Compound 239] ?
// result 1000 to 10000 nM

// query Which measured IC50 value corresponds to CC1CN(c2cc3sc(-c4cc(F)c5nn(C)cc5c4)nc3s2)CCN1C (stereo not drawn) [Compound 128] ?
// result 1000 to 10000 nM

// query Which measured IC50 value corresponds to Cn1cc2cc(-c3cc4cn([C@@H]5CCNC5)nc4s3)cc(F)c2n1 [Compound 160, hydrochloride] ?
// result > 10000 nM

// query Which measured IC50 value corresponds to Cn1cc2cc(-c3nc4cn(C5CCNCC5)nc4s3)c(O)cc2n1 [Compound 1110] ?
// result 100 to 1000 nM

// query Which measured IC50 value corresponds to Cc1cc(-c2cc3cn([C@H]4CCNC[C@H]4F)nc3s2)cc2cn(C)nc12 (single isomer, unassigned) [Compound 245] ?
// result 1000 to 10000 nM

// query Which measured IC50 value corresponds to C[C@@H]1C[C@H](c2cc3sc(-c4cc(F)c5nn(C)cc5c4)nc3s2)CCN1 (single isomer, unassigned) [Compound 192] ?
// result < 100 nM

// query Which measured IC50 value corresponds to Cn1cc2cc(-c3nc4sc(N5CCNC6(CC6)C5)cc4s3)cc(F)c2n1 [Compound 136] ?
// result > 10000 nM

// query Which measured IC50 value corresponds to CC1CN(c2cc3sc(-c4cc(F)c5nn(C)cc5c4)nc3s2)CCN1 (stereo not drawn) [Compound 135] ?
// result 100 to 1000 nM

// query Which measured IC50 value corresponds to Cn1cc2cc(N3Cc4sc(C5CCNCC5)cc4C3=O)ccc2n1 [Compound 1120] ?
// result 1000 to 10000 nM

// query Which measured IC50 value corresponds to Cc1cn2cc(-c3cc4cn(C5CCNCC5)nc4s3)nc(C)c2n1 [Compound 228] ?
// result 1000 to 10000 nM

// query Which measured IC50 value corresponds to Cc1cn2cc(-n3cc4cc(C5CCNCC5)sc4n3)cc(F)c2n1 [Compound 156] ?
// result 100 to 1000 nM

// query Which measured IC50 value corresponds to Cc1cc(-n2cc3nc(C4CCNCC4)sc3n2)cc2cn(C)nc12 [Compound 1106] ?
// result > 10000 nM

// query Which measured IC50 value corresponds to Cn1cc2cc(N3Cc4sc(C5CCNCC5)cc4C3=O)ncc2n1 [Compound 1125] ?
// result 1000 to 10000 nM
